B1: ATL3 (parent)
chain: FSFRYQQELEEEIKELYENFCKHN

# Variants of: B1
# EXPERIMENTAL_DETAILS: protein stability index of a GFP-peptide fusion (GPS, HEK-293T) (PSI 1-6); higher = more stable;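 note: lentivirally expressed fusions sorted by FACS into six bins by GFP to DsRed ratio, PSI derived from sequencing read proportions per bin multiplied by bin number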
# SETUP_CONDITIONS: c terminus: a fixed tail appended
REPORTED_PROPERTY: protein stability index
API note: the answer field is a bare number with no unit suffix.

Documented protein stability index of `N24I` : 2.82

protein stability index reported for this variant `Y5N` : 3.29
